From: paper PMC9516332

Give IC50 for every item shown.
# System: AP-1060 (ETV6-NTRK3)
# experimental-details: Cell viability assay
# details: read-out: IC50 in cell proliferation assay
Just the number please, in µM, no unit attached.

Suppose we examine the compound `CO[C@]1(C(=O)N[C@@H](C)c2ccc(-n3cc(F)cn3)nc2)CC[C@H](c2nc(C)cc(Nc3cc(C)[nH]n3)n2)CC1` ; what IC50 value has been reported? 0.206

What do you have for `Cc1cc(Nc2ncnc3ccc(NC4=NC(C)(C)CO4)cc23)ccc1Oc1ccn2ncnc2c1` ? 29.1

What do you have for `COc1ccc(CN2C3CC2CN(c2ccc(-c4cc(OCC(C)(C)O)cn5ncc(C#N)c45)cn2)C3)cn1` ? 3.96

What do you have for `O=C(Nc1cnn2ccc(N3CCC[C@@H]3c3cc(F)ccc3F)nc12)N1CC[C@H](O)C1` ? 0.009
